Data provenance is patent US10450314B2.

assay: Human liver microsome (HLM) metabolic stability assay; assay type: in vitro ADME; conditions: human liver microsomes, 1 uM compound, 37° C., 60 min; % hepatic blood flow
Observable: HLM (% Qh)

Some entries whose results are on file:
CC[C@H](C)n1c(=O)c(NCc2ccc(S(=O)(=O)CC)nc2)nc2c(C)nc(-c3c(OC)ncnc3C3CC3)nc21 [Example 63]: <24 % Qh
CCS(=O)(=O)c1ccc(CNc2nc3c(C)nc(-c4c(C)ncnc4C4CC4)nc3n([C@@H](C)C(F)(F)F)c2=O)cn1 [Example 82]: <24 % Qh
CCS(=N)(=O)c1ccc(CNc2nc3c(C)nc(-c4c(C)ncnc4C4CC4)nc3n([C@@H](C)C(F)(F)F)c2=O)nc1 (single isomer, unassigned) [Example 102b]: <24 % Qh
CCS(=O)(=O)c1ccc(CNc2nc3c(C)nc(-c4c(OC)ncnc4C4CC4)nc3n([C@@H](C)C3CC3)c2=O)cn1 [Example 66]: 25 % Qh
Cc1ncnc(C2CC2)c1-c1nc(C)c2nc(NCc3ccc(S(C)(=N)=O)cc3)c(=O)n([C@@H](C)C3CC3)c2n1 (single isomer, unassigned) [Example 27a]: <24 % Qh

Now let's try a different one.
Entry under test: Cc1ncnc(C2CC2)c1-c1nc(C)c2nc(NCc3ccc(S(C)(=O)=O)nc3)c(=O)n([C@@H](C)C3CC3)c2n1 [Example 7] . Its HLM (% Qh) was 33 % Qh

====

Attribute: HLM (% Qh)
test: Human liver microsome (HLM) metabolic stability assay; assay type: in vitro ADME; details: human liver microsomes, 1 uM compound, 37° C., 60 min; % hepatic blood flow

Worked examples, 2 compounds total:
CC[C@H](C)n1c(=O)c(NCc2ccc(S(C)(=O)=O)nc2)nc2c(C)nc(-c3c(C)ncnc3C3CC3)nc21: <24 % Qh
Cc1ncnc(C2CC2)c1-c1nc(C)c2nc(NCc3ccc(S(C)(=N)=O)cc3)c(=O)n([C@@H](C)C3CC3)c2n1 (single isomer, unassigned) [Example 27b]: <24 % Qh

The recorded HLM (% Qh) for "CC[C@H](C)n1c(=O)c(NCc2ccc(S(C)(=O)=O)nc2)nc2c(C)nc(-c3c(OC)ncnc3C3CC3)nc21" is 26 % Qh

Note to self: HLM (% Qh) recorded for "CCS(=O)(=O)c1ccc(CNc2nc3c(C)nc(-c4c(OC)ncnc4C4CC4)nc3n(C(C)C)c2=O)nc1" was <24 % Qh

Looking up "CCS(=O)(=O)c1ccc(CNc2nc3c(C)nc(-c4c(OC)ncnc4C4CC4)nc3n(CC(C)C)c2=O)cn1" , I see its HLM (% Qh) listed as <24 % Qh

Entry Cc1ncnc(C2CC2)c1-c1nc(C)c2nc(NCc3ccc(S(C)(=N)=O)cc3)c(=O)n([C@@H](C)C(F)(F)F)c2n1 (single isomer, unassigned) [Example 91b] — recorded HLM (% Qh) = <24 % Qh

====

experiment: Human liver microsome (HLM) metabolic stability assay; type: in vitro ADME; details: human liver microsomes, 1 uM compound, 37° C., 60 min; % hepatic blood flow
Observable: HLM (% Qh)

Check out these entries, answers already filled in.
CCS(=N)(=O)c1ccc(CNc2nc3c(C)nc(-c4c(C)ncnc4C4CC4)nc3n([C@@H](C)C3CC3)c2=O)cc1 (single isomer, unassigned) [Example 36a]: <24 % Qh
Cc1ncnc(C2CC2)c1-c1nc(C)c2nc(NCc3ccc(S(C)(=N)=O)cn3)c(=O)n([C@@H](C)C3CC3)c2n1 (single isomer, unassigned) [Example 43b]: <24 % Qh

Proceeding to the next compound to report its HLM (% Qh).
The compound listed as CCS(=O)(=O)c1ccc(CNc2nc3c(C)nc(-c4c(C)ncnc4C4CC4)nc3n([C@@H](C)CF)c2=O)nc1 [Example 48] has a reported HLM (% Qh) of <24 % Qh
